- Test system: S. aureus DSM 20231;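 note: OD595 on entry to stationary phase over no-drug wells; at most 1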
- assay_explanation: fitness (endpoint OD595 vs no drug) (fraction); higher = more growth
- conditions: first compound 0.625 µg/mL; partner 0.0625 µg/mL
Exercise: for every item that follows, state its recorded fitness.

molecule | fitness
Cc1ncc([N+](=O)[O-])n1CCO [Metronidazole] + CC1=C\[C@@H](O)CC(=O)Cc2nc(co2)C(=O)N2CCC=C2C(=O)O[C@H](C(C)C)[C@H](C)/C=C/C(=O)NC\C=C\1 [Virginiamycin M1] | ≥ 1

I have 4 molecules here; please give me fitness for each one.
1. COc1cccc2c1C(=O)c1c(O)c3c(c(O)c1C2=O)C[C@@](O)(C(=O)CO)C[C@@H]3O[C@H]1C[C@H](N)[C@H](O)[C@H](C)O1 [Doxorubicin] + CO[C@@]12[C@H](COC(N)=O)C3=C(C(=O)C(C)=C(N)C3=O)N1C[C@@H]1N[C@@H]12 [Mitomycin C]
2. COc1cccc2c1C(=O)c1c(O)c3c(c(O)c1C2=O)C[C@@](O)(C(=O)CO)C[C@@H]3O[C@H]1C[C@H](N)[C@H](O)[C@H](C)O1 [Doxorubicin] + Cn1nnc(-c2ccc(-c3ccc(N4C[C@H](CO)OC4=O)cc3F)cn2)n1 [Tedizolid]
3. COc1cccc2c1C(=O)c1c(O)c3c(c(O)c1C2=O)C[C@@](O)(C(=O)CO)C[C@@H]3O[C@H]1C[C@H](N)[C@H](O)[C@H](C)O1 [Doxorubicin] + Cc1onc(-c2ccccc2)c1C(=O)N[C@@H]1C(=O)N2[C@@H]1SC(C)(C)[C@@H]2C(=O)O [Oxacillin]
4. Cc1ncc([N+](=O)[O-])n1CCO [Metronidazole] + Cc1onc(-c2ccccc2)c1C(=O)N[C@@H]1C(=O)N2[C@@H]1SC(C)(C)[C@@H]2C(=O)O [Oxacillin]

0.52
0.813
0.479
0.632
